Attribution: PubChem BioAssay (NCI)

- Tested on: M14 melanoma
- Test Method Notes: NCI tumour cell line growth inhibition, 48 h
Metric: GI50

Example cases with answers are listed next.
- Compound: "CCOn1cc(C2=C(c3c[nH]c4ccccc34)C(=O)NC2=O)c2ccccc21"
  GI50: "0.0542 µM"
- Compound: "Cn1cnc2c(NCc3ccccc3)nc(NCCO)nc21"
  GI50: "51 µM"
- Compound: "COc1ccc2c(c1)Cc1c-2c(NN)nc2ccccc12"
  GI50: "40.1 µM"

Entry Cc1ccc(NC(=O)c2ccnc(N3CCCC3)c2)cc1-c1ccc(C(=O)NCC2CC2)cc1 , GI50 reported as > 25 µM

Entry C#C[C@@]1(O)[C@@H](CO)O[C@@H](n2cc(F)c3c(N)ncnc32)[C@@H]1O , GI50 reported as 0.481 µM

---

- Tested on: HL-60(TB) leukemia
- Test Method Notes: NCI tumour cell line growth inhibition, 48 h
Item-by-item account of TGI

Example cases with answers are listed next.
- Compound: "CC1(C)OC(=O)CC12CCN(Cc1ccccc1)CC2"
  Readout Value: "> 100 µM"
- Compound: "CC1C2=CC=C(O2)C(C)(C)C2=CC=C(O2)C(C)(C)C2=CC=C(O2)C(C)(C)C2=CC=C1O2"
  Readout Value: "> 100 µM"
- Compound: "O=C(O)C(Br)Cc1ccc2c(c1)OCO2 (stereo unspecified)"
  Readout Value: "> 100 µM"
- Compound: "CC(C)(O)[C@H]1[C@@H]2OC(=O)[C@H]1[C@]1(O)C[C@H]3OC34C(=O)O[C@H]2[C@@]41C (stereo partly specified) (tested in a mixture with another compound)"
  Readout Value: "> 100 µM"
- Compound: "COc1ccc(C(CC(=O)c2ccccc2)C(=O)c2ccc3c(c2)OCO3)cc1 (stereo unspecified)"
  Readout Value: "> 100 µM"

Now consider the entry below.
Entry Cc1ccc(C(=O)NC2CCCCC2)cc1-c1ccc(C(=O)NCC2CC2)cc1 , TGI reported as > 25 µM

---

- Tested on: SK-OV-3 ovarian
- Test Method Notes: NCI tumour cell line growth inhibition, 48 h
Item-by-item account of TGI

Entry O=C(O)C(Br)Cc1ccc2c(c1)OCO2 (stereo not drawn) , TGI reported as > 100 µM

Entry COc1ccc(-c2nc(-c3nc4cc(C)c(C)cc4[nH]3)cc3c2[nH]c2ccccc23)cc1 , TGI reported as 48.1 µM

Entry COC1CC2CCC(C)[C@](O)(O2)C(=O)C(=O)N2CCCCC2C(=O)OC(C(C)CC2CCC(O)C(OC)C2)CC(=O)C(C)C=C(C)C(OC(=O)CN(C)C)C(OC)C(=O)C(C)CC(C)/C=C/C=C/C=C\1C (stereo partly drawn) , TGI reported as 20 µM

Entry CC12CC3CC(C)(C1)CC(N=[N+]=[N-])(C3)C2 , TGI reported as > 100 µM

Entry Nc1nccc(Nc2ccc(S(N)(=O)=O)cc2)n1 , TGI reported as > 100 µM

---

Item-by-item account of TGI
- System: A498 renal
- Test Method Notes: NCI tumour cell line growth inhibition, 48 h

- Compound: "Cc1cc(C)nc(SC2=C(Nc3cccc(Cl)c3)C(=O)N(Cc3ccccc3)C2=O)n1"
  Readout Value: "> 170 µM"
- Compound: "COC(=O)c1cc(C#N)[nH]c1-c1cccs1"
  Readout Value: "86 µM"
- Compound: "CSc1sc(=S)sc1SC"
  Readout Value: "> 100 µM"

Entry COC(=O)C1C(=O)O[C@@H](c2ccc(OC)cc2OC)C1C(=O)OC (stereo partly specified) , TGI reported as > 100 µM

Entry CCN(CC)CCOc1cc2c(C(=O)OC)c(C)oc2cc1C(C)=O , TGI reported as > 100 µM

Entry O=C(/C=C/c1ccccc1)CCC1C(=O)NC(=O)NC1=O , TGI reported as > 100 µM

---

- Tested on: SNB-78 CNS
- Test Method Notes: NCI tumour cell line growth inhibition, 48 h
Metric: TGI

Example cases with answers are listed next.
- Molecule: "CSC(=S)NNC(=O)c1ccncc1"
  Metric: "TGI"
  Readout Value: "> 100 µM"
- Molecule: "CC1C(=O)N(C)C2(CO)C(=O)O[C@H](C)C12O (stereo not given in full)"
  Metric: "TGI"
  Readout Value: "> 100 µM"
- Molecule: "CCC(=C(c1ccc(OCc2ccccc2)cc1)c1ccc(OCc2ccccc2)cc1)c1ccc(OC)cc1"
  Metric: "TGI"
  Readout Value: "> 100 µM"
- Molecule: "Cc1ccc2[nH]c(=O)c(C(C#N)c3ccccc3)nc2c1 (stereo not given)"
  Metric: "TGI"
  Readout Value: "80.1 µM"

Entry Cc1c(Cl)ccc2c1NC(=O)C2(O)C1Cc2ccccc2C1=O (stereo not given) , TGI reported as > 100 µM

Entry CCOC(=O)C1C(c2ccc([N+](=O)[O-])cc2)NC(c2ccc([N+](=O)[O-])cc2)C(C(=O)OC)S1(=O)=O (stereo not given) , TGI reported as > 100 µM

Entry Cn1c2cccc3nnc4cccc(c4c32)n1C , TGI reported as > 100 µM

Entry O=C(CC(=O)C(F)(F)F)c1csc2ccccc12 , TGI reported as > 100 µM

Entry CN=S(=O)(C[C@]1(O)CC2OC1C1OC(C)(C)OC21)c1ccccc1 (stereo not given in full) , TGI reported as > 100 µM

Entry COc1cc([C@H]2Oc3cc(O)c4c(=O)cc(-c5ccc(O)cc5)oc4c3O[C@@H]2CO)ccc1O , TGI reported as 98.1 µM

---

- Tested on: U251 CNS
Select the matching outcome among 1 (active), 0 (inactive)

Identify the outcome logged in this assay for the molecule shown: Cc1cccc(N=C2c3cc([N+](=O)[O-])ccc3-c3c2cc([N+](=O)[O-])cc3[N+](=O)[O-])c1 0

Identify the outcome logged in this assay for the molecule shown: COc1cc2c3c(n(C4CCNCC4)c(=O)c2cc1OC)-c1cc2c(cc1C3=O)OCO2 1

Identify the outcome logged in this assay for the molecule shown: O=C(Cn1ccnc1[N+](=O)[O-])NCC(F)(F)C(F)(F)F 0

Identify the outcome logged in this assay for the molecule shown: C=C[C@]1(C)C=C2C(=O)[C@@]3(O)OC(=O)[C@@]4(CCCC(C)(C)[C@H]34)[C@@]2(O)CC1 0

Identify the outcome logged in this assay for the molecule shown: CCN(CC)CCOc1cc2c(C(=O)OC)c(C)oc2cc1C(C)=O 0

---

- Test system: HT29 colon
- Test Method Notes: NCI tumour cell line growth inhibition, 48 h
Metric: TGI

Example cases with answers are listed next.
- Compound: "CC1=[N+]([O-])C(C)(C)N(O)C1(C)C"
  TGI: "> 100 µM"
- Compound: "COc1ccc(/C=C/[N+](=O)[O-])cc1"
  TGI: "11.2 µM"
- Compound: "O=C(C=Nc1ccccc1C(=O)[O-])c1cccs1.O=C(C=Nc1ccccc1C(=O)[O-])c1cccs1.[Cu+2]"
  TGI: "> 100 µM"
- Compound: "O=C1/C(=C/C(Cl)=C/c2ccccc2)SC(=S)N1CCc1ccc(O)cc1"
  TGI: "5.57 µM"
- Compound: "COc1c(O)cc2c(c1O)C1O[C@H](CO)C(O)[C@H](O)[C@H]1OC2=O (stereo partly specified)"
  TGI: "> 100 µM"

Entry Nc1nncs1 , TGI reported as > 3390 µM

Entry O=S1(=O)OCCCOS(=O)(=O)C1Br , TGI reported as > 100 µM

Entry O=C(O)c1cccc(CC(Br)C(=O)O)c1 (stereo unspecified) , TGI reported as > 100 µM

---

- Test system: HOP-62 NSCLC
- Test Method Notes: NCI tumour cell line growth inhibition, 48 h; in the data active = GI50 below about 0.43 µM; inactive = the rest
Select the matching outcome among active, inactive

Worked set:
- Given Smiles: "CCOC(=O)c1c(Cl)c2c(n1Cc1cc(OC)cc(OC)c1)-c1oncc1CCC2"
  Test Target: "HOP-62 NSCLC"
  Discrete Label: "inactive"
- Given Smiles: "C#C[C@@]1(O)[C@@H](CO)O[C@@H](n2cc(F)c3c(N)ncnc32)[C@@H]1O"
  Test Target: "HOP-62 NSCLC"
  Discrete Label: "inactive"
- Given Smiles: "O=C1/C(=C/C(Cl)=C/c2ccccc2)SC(=S)N1CCc1ccc(O)cc1"
  Test Target: "HOP-62 NSCLC"
  Discrete Label: "inactive"
- Given Smiles: "Cc1ccc(NC(=O)c2ccnc(N3CCCC3)c2)cc1-c1ccc(C(=O)NCC2CC2)cc1"
  Test Target: "HOP-62 NSCLC"
  Discrete Label: "inactive"
- Given Smiles: "CCCC(=O)NNc1[nH]c(-c2ccc(OC)cc2)cc1C(=O)OCC"
  Test Target: "HOP-62 NSCLC"
  Discrete Label: "inactive"
- Given Smiles: "COc1cc2c(cc1OC)[C@@]1(C)C(=O)c3cc4c(cc3[C@H]1N(C)C2=O)OCO4"
  Test Target: "HOP-62 NSCLC"
  Discrete Label: "inactive"
- Given Smiles: "CC/C(=C(\\CC)c1ccc(OCCN(CC)CC)cc1)c1ccc(OCCN(CC)CC)cc1"
  Test Target: "HOP-62 NSCLC"
  Discrete Label: "inactive"
- Given Smiles: "COc1cnc2c(c1)C(=O)c1c-2n(CCCN2CCN(C)CC2)c(=O)c2cc(Cl)ccc12"
  Test Target: "HOP-62 NSCLC"
  Discrete Label: "inactive"

Kindly consider the entry below.
Identify the outcome logged in this assay for the molecule shown: CN1CCN(Cc2ccc(Nc3ncc(Cl)c(Nc4ccccc4S(=O)(=O)N(C)C)n3)cc2)CC1 active
